Molecular target: T1, recombinant human domain 1-3His6 of the cation-independent mannose-6-phosphate receptor (human, UniProt P11717 41-467)
T1 construct: Biotinylated (NHS-PEG4-biotin) for BLI; Glycosylated; also called hDom1-3His6; hCI-M6PRD1-D3
Assay: BLI exp 1, dissoc pH 7.4
Quick list: Kd per entry.

binder: anti-CI-M6PR VHH5 (VHH, His6-tagged; made in Pichia pastoris, later also in E. coli WK6) VHH: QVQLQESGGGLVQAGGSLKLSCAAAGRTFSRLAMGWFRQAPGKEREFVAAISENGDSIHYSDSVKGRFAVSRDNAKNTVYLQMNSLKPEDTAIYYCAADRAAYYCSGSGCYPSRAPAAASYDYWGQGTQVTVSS
readoutUnits: nM
Kd: 0.0903
//
binder: anti-CI-M6PR VHH9 (VHH, His6-tagged; made in Pichia pastoris) VHH: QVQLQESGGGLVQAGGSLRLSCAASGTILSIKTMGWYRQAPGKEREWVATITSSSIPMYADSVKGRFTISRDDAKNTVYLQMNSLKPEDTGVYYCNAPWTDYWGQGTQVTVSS
readoutUnits: nM
Kd: 0.282
